Form: system (AXL (Homo sapiens)), quantity (pIC50), values below.
pIC50: −log10 of the molar value.

Query: Read off the recorded pIC50 for COC[C@H](C)Nc1ncc2c(-c3cnn(C4CCOCC4)c3)cc([C@H]3CC[C@H](O)CC3)n2n1
Result: 6.00 to 7.00

Query: Read off the recorded pIC50 for C[C@@H](CC(F)F)Nc1ncc2c(-c3ccc(S(C)(=O)=O)nc3)cc([C@H]3CC[C@H](O)CC3)n2n1
Result: ≥ 7.00

Query: Read off the recorded pIC50 for Cc1ccc(-c2cc([C@H]3CC[C@H](O)CC3)n3nc(N[C@@H](C)COC(F)F)ncc23)cn1
Result: ≥ 7.00

Query: Read off the recorded pIC50 for COCC(C)Nc1ncc2c(-c3cccc(C)n3)cc(C3CCC(O)CC3)n2n1 (stereo not shown)
Result: 5.00 to 6.00

Query: Read off the recorded pIC50 for COC[C@H](C)Nc1ncc2c(-c3ccnc(N4CCCC4)c3)cc([C@H]3CC[C@H](O)CC3)n2n1
Result: ≥ 7.00

Query: Read off the recorded pIC50 for COC[C@H](C)Nc1ncc2c(-c3ccnc(C)c3)cc([C@H]3CC[C@@H](O)CC3)n2n1
Result: 6.00 to 7.00

Query: Read off the recorded pIC50 for CCCCCC(C)Nc1ncc2c(C3=CCC(C(=O)N4CCOCC4)CC3)cc(C3CCC(O)CC3)n2n1 (mixture of isomers)
Result: ≥ 7.00
